Reference source for all entries: patent US20250027068

The entries below are paired with their reported Enzyme Activity Endpoint Assay (purified): IgG.
# assayed-target: pooled human IgG
measurement-type: Enzyme Activity Endpoint Assay (purified): IgG (ng/µL)

protein	reported-result
PRT-150 (protein) MANQEIRYSEVTPYHVTSVWTKGVTPPANFTQGEDVFHAPYVANQGWYDITKTFNGKDDLLCGAATAGNMLHWWFDQNKDQIKRYLEEHPEKQKINFNGEQMFDVKEAIDTKNHQLDSKLFEYFKEKAFPYLSTKHLGVFPDHVIDMFINGYRLSLTNHGPTPVKRQEKDPRGGIFDAVFGRGDQTKLLTSRHDFKEKNLKEISDLIKKELTEGKALGLSHTYANVRINHVINLWGADFDSNGNLKAIYVTDSDSNASIGMKKYFVGVNSAGKVAISAKEIKEDNIGAQVLGLFTLSTGQKSWNKTN	0
PRT-130 (protein) MRNATEAYAKEVPHQITSVWTKGVTPLTPEQFRYNNEDVIHAPYLAHQGWYDITKAFDGKDNLLCGAATAGNMLHWWFDQNKTEIEAYLSKHPEKQKIIFNNQELFDLKAAIDTKDSQTNSQLFNYFRDKAFPNLSARQLGVMPDLVLDMFINGYYLNVFKTQSTDVNRPYQDKDKRGGIFDAVFTRGDQTTLLTARHDLKNKGLNDISDIIKQELTEGRALALSHTYANVSISHVINLWGADFNAEGNLEAIYVTDSDSNASIGMKKYFVGINAAGHVAISAKKIEGENIGAQVLGLFTLSSGKDIWQKLS	0
